assayed-system: T1, full length recombinant human 2N4R tau (human, UniProt P10636 1-758)
T1 construct: bought from rPeptide; pHrodo Red maleimide-labelled where it stands in uptake assays; also called tau1-441; full length tau
T1 sequence (P10636 other isoform, or with tags, fused parts or gaps limits assumed): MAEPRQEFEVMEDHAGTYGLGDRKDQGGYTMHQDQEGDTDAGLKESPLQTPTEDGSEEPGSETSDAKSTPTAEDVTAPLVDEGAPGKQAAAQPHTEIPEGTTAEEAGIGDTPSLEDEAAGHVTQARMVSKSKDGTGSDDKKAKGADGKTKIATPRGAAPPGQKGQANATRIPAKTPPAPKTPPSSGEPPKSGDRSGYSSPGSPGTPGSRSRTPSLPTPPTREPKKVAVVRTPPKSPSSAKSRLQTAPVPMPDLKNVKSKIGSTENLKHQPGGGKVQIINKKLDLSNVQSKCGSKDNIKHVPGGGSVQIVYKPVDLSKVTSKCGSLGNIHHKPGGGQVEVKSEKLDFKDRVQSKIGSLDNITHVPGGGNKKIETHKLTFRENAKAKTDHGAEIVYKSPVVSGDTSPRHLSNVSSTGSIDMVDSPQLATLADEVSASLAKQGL
assay-procedure: SPR MCK, IgG on Protein A, tau in flow
Reported kon values follow for various binders
Write it as a number; the unit M⁻¹ s⁻¹ goes unstated.

binder: #44 VH0VK0 chimeric human IgG1 (antibody, V domains shown, rabbit VH and VK on human IgG1; also called VH0Vκ0; Clone #44 hIgG1) VH: QSVEESGGRLVTPGTPLTLTCTVSGIDLSSYAMAWVRQAPGKGLEWIGCIDRRGGTFYASWVKGRFTISKTSTTVDLKMTSLTTEDTATYFCARDSGAFDPWGPGTLVTVSS VL: QIVMTQTPSSVSAAVGGTVTIKCQASQSVYDNYLAWYQQKPGQPPKLLIHAASNLASRVPSRFKGSGSGTQFTLTISDVQCDDAATYYCLGEFSCTTTDCNVFGGGTEVVVK
data-value: 3.3e+06

Q: kon lookup needed for #44 VH4VK2 humanised hIgG1 (antibody, V domains shown, also called VH4Vκ2; Clone VH4VK2 (C)) VH: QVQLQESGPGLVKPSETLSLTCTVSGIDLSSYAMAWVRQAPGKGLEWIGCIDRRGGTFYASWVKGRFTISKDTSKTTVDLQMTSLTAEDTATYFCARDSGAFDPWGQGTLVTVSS VL: QIVMTQSPSSLSASVGDRVTITCQASQSVYDNYLAWYQQKPGQPPKLLIHAASNLASGVPSRFKGSGSGTEFTLTISSLQPDDFATYYCLGEFSCTTTDCNVFGGGTKVEIK , thanks.
Ans: 9.14e+06

Q: Which kon is reported for this binder? #44_VH4VK4 humanised hIgG1 (antibody, V domains shown, also called VH4Vκ4; pVH/pVL) VH: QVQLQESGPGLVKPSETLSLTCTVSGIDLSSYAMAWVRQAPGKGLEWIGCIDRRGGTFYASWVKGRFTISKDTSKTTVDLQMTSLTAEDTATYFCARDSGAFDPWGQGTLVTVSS VL: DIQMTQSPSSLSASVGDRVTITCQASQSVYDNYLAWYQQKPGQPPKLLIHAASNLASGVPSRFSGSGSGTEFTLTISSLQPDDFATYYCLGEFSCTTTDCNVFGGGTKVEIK
Ans: 5.41e+06
